FYI, the data here is from patent US9643964B2.

system: L-363 cells; assay: Biological Assay C: antiproliferative activity on L-363 cells (CellTiter-Glo); format: cell-based, human; settings: Homo sapiens, L-363, 72 h, 72 hr treatment; averaged values
Measured log10 EC50, listed per entry.
Please keep in mind that the values are log10 of EC50 expressed in µM.

Worked examples follow.
log10 EC50 in this record for CC(C)(O)C#Cc1cc2c(-c3ccnc(N)n3)cn(CC#N)c2cn1 [Compound 56] : -0.08

log10 EC50 in this record for CCN1CCC(n2cc(-c3nc(N)ncc3F)c3cc(C#CC(C)(O)C4CC4)ncc32)CC1 (centres unmarked) [Compound 106] : -1.05

log10 EC50 in this record for CC(C)n1cc(-c2ccnc(N)n2)c2cc(C#CCO)ncc21 [Compound 13] : -1.44

log10 EC50 in this record for Cn1cc(Cn2cc(-c3nc(N)ncc3F)c3cc(C#CC(C)(O)C4CC4)ncc32)cn1 (centres unmarked) [Compound 109] : -0.44

log10 EC50 in this record for CC(O)(C#Cc1cc2c(-c3nc(N)ncc3F)cn(C3CCOC3)c2cn1)C1CC1 (centres unmarked) [Compound 131] : -1.05

Further cases:
log10 EC50 in this record for CCN1CC(n2cc(-c3nc(N)ncc3F)c3cc(C#CC(C)(O)C4CC4)ncc32)C1 (centres unmarked) [Compound 136] : -0.85

====

Measured EC50, listed per entry.
test system: L-363 cells; test: Biological Assay C: antiproliferative activity on L-363 cells (CellTiter-Glo); format: cell-based, human; settings: Homo sapiens, L-363, 72 h, 72 hr treatment; averaged values
Entry rule: numbers only, all in µM.

EC50 in this record for CC(C)(O)Cn1cc(-c2nc(N)ncc2Cl)c2cc(C#CC3(O)CCCC3)ncc21 : 1.1

EC50 in this record for CC(C)(O)Cn1cc(-c2nc(N)ncc2Cl)c2cc(C#CC(C)(O)c3nccs3)ncc21 (stereo not drawn) : 9.9

EC50 in this record for CNc1ncc(F)c(-c2cn(CCCOC)c3cnc(C#CC(C)(C)O)cc23)n1 : 0.51

EC50 in this record for COCCCn1cc(-c2nc(N)ncc2C)c2cc(C#CC(C)(C)O)ncc21 : 0.55

EC50 in this record for CC(C)(O)Cn1cc(-c2nc(N)ncc2Cl)c2cc(C#CC3(O)CC3)ncc21 : 0.074

EC50 in this record for CC(O)(C#Cc1cc2c(-c3nc(N)ncc3F)cn(C3CCN(CCF)CC3)c2cn1)C1CC1 (stereo not drawn) : 0.059

EC50 in this record for [2H]C([2H])([2H])C(O)(C#Cc1cc2c(-c3nc(N)ncc3F)cn(C3CN(C4CC4)C3)c2cn1)C([2H])([2H])[2H] : 0.093

EC50 in this record for CCCN1CC(n2cc(-c3nc(N)ncc3F)c3cc(C#CC(C)(O)C4CC4)ncc32)C1 (stereo not drawn) : 0.16

EC50 in this record for COCCn1cc(-c2nc(N)ncc2F)c2cc(C#CC(C)(C)O)ncc21 : 0.059

EC50 in this record for COCC(C)N1CC(n2cc(-c3nc(N)ncc3F)c3cc(C#CC(C)(O)C4CC4)ncc32)C1 (stereo not drawn) : 0.35

EC50 in this record for CN1CC(n2cc(-c3nc(N)ncc3F)c3cc(C#CC(C)(C)O)ncc32)C1 : 0.12

EC50 in this record for CN(C)C(=O)Cn1cc(-c2ccnc(N)n2)c2cc(C#CC(C)(C)O)ncc21 : 24

EC50 in this record for CC(C)(O)Cn1cc(-c2ccnc(N)n2)c2cc(C#CC(C)(O)C(F)(F)F)ncc21 (stereo not drawn) : 1.3

EC50 in this record for CC(C)(O)C#Cc1cc2c(-c3nc(N)ncc3Cl)c[nH]c2cn1 : 0.075

EC50 in this record for CC(O)(C#Cc1cc2c(-c3nc(N)ncc3F)cn(C3CN(C4CCCC4)C3)c2cn1)C1CC1 (stereo not drawn) : 0.19
